Quick list: apparent KD of MS2 coat protein per entry.
system: MS2 coat protein; assay: apparent KD of MS2 coat protein; designed switch direction (-1 OFF switch, 1 ON switch): -1; higher = weaker reporter binding; settings: input ligand: FMN 200 uM
Please respond with the number in nM and leave the unit unwritten.

Q: Name the recorded apparent KD of MS2 coat protein for CCGACCCGAGGAUAUUGUACUGCUGACAUGAGGAUCACCCAUGUAUGUUAACUCGGCCGACGAGAAGGCGGCGACA [BotMod 3 - Jieux - Exclusion 5] (Eterna round: R97, puzzle: Exclusion 5) .
Result: 18.4

Q: Name the recorded apparent KD of MS2 coat protein for AGCCUGUAAUCCCUCAGACAUGAGGAUCACCCAUGUGGAUGUAAGGAUAUAGGUGCAAUUGCAAUCUAGAAGGUACGCCGUCAG [Eternabot solution 32] (Eterna round: R96, puzzle: Exclusion NG 3) .
Result: 44.8

Q: Name the recorded apparent KD of MS2 coat protein for GCACGGUUGGUAGGAUAUCCUUGCGAUUAGCAAGGAGAAGGACCACAUGAGGAUCACCCAUGUACCUCAAUAAUCCUUCCGUGC [Eli exng1 - 027] (Eterna round: R96, puzzle: Exclusion NG 1) .
Result: 12.8

Q: Name the recorded apparent KD of MS2 coat protein for UGAGUGCUGCGAGGAUAUACAUGAGGAUCACCCAUGUAAUCGUGUGAGGCUUUGCCUCACACGAAGUAGAAGGCGCAGUACUCU [JL ENG2 1.10] (Eterna round: R96, puzzle: Exclusion NG 2) .
Result: 12

Q: Name the recorded apparent KD of MS2 coat protein for CCUAGGUUAGGAUAUCUCGAUGUGGCAAAGGGUCCAUAUCGGGAGAAGGAACAUGAGGAUCACCCAUGUGGAGC [Eternabot (Original) Solution 42] (Eterna round: R97, puzzle: Exclusion 4) .
Result: 159

Q: Name the recorded apparent KD of MS2 coat protein for CCUCAACAUGAGGAUCACCCAUGUAAGGAUAUGUUGCAGAGCCUCGAGGUACCCGUCAACAGAAGGUAUAUAGA [Eternabot (L1) Solution 16] (Eterna round: R97, puzzle: Exclusion 1) .
Result: 45.1

Q: Name the recorded apparent KD of MS2 coat protein for UAUUUACAUGAGGAUCACCCAUGUCAGGAUAUGUUUCUAUCGUCGAAAGACGAUAUUUGCAGAAGGGACAAUAU [LRO-Excl01-26 mod derived from EliFisker 4.24] (Eterna round: R97, puzzle: Exclusion 1) .
Result: 64.4

Q: Name the recorded apparent KD of MS2 coat protein for AGGUGCUUCUGGAGACAUGAGGAUCACCCAUGUCGAGUUAGCGAGGAUAUCGGUAAGGCAUGUGAUGAGAAGGCGCAAACCGAU [Ex NG3 #50] (Eterna round: R96, puzzle: Exclusion NG 3) .
Result: 22.8

Q: Name the recorded apparent KD of MS2 coat protein for CCAAGAAUAGGAUAUACAACAUGCCAGCUUCUUUACAUCGCACAUGAGGAUCACCCAUGUAGAAGGGUUCUCUG [Exclusion-2-#15] (Eterna round: R97, puzzle: Exclusion 2) .
Result: 182

Q: Name the recorded apparent KD of MS2 coat protein for GGCCUACAUGAGGAUCACCCAUGUAAGGAUAUCAAGUCGGGCUCCAAGGAAGCCCAUAUGAGAAGGUAUUUGGG [Eternabot (L2) Solution 32] (Eterna round: R97, puzzle: Exclusion 1) .
Result: 116

Q: Name the recorded apparent KD of MS2 coat protein for GACCUAUAGGUAGGAUAUCAUUGCGAUUAGCUAUGAGAAGGACCACAUGAGGAUCACCCAUGUCCUCCAAUUAACCAUUUGGUC [Fiskers ExNg1 - 4] (Eterna round: R96, puzzle: Exclusion NG 1) .
Result: 239

Q: Name the recorded apparent KD of MS2 coat protein for ACCUCACAUGAGGAUCACCCAUGUCAGGAUAUUCAAACAGGCGAAACUCCGCCUUCUCGAAGAAGGGACAUUAA [Israon] (Eterna round: R96, puzzle: Exclusion 1) .
Result: 82.1

Q: Name the recorded apparent KD of MS2 coat protein for UCUUCACAUGAGGAUCACCCAUGUGAGGAUAUGGUUUCGCUGGCCGUAGCCAGUGGAACCAGAAGGCGCGUGAU [Mat - Exclusion 1 - JL Mod - D23] (Eterna round: R97, puzzle: Exclusion 1) .
Result: 89.6

Q: Name the recorded apparent KD of MS2 coat protein for AGGUUGUGAGGAUAUUAGUUAUAUGAUUGGAGGAGUAUGGCUGAGAAGGCACAUGAGGAUCACCCAUGUAGAUC [JR_Ex4_Sub048] (Eterna round: R97, puzzle: Exclusion 4) .
Result: 555

Q: Name the recorded apparent KD of MS2 coat protein for UCAUAGUGAGGAUAUCGGUCCCUGACAAAUAGUUGGGUUAUUGAGAAGGCACAUGAGGAUCACCCAUGUGUCCG [EX4 C.5] (Eterna round: R97, puzzle: Exclusion 4) .
Result: 19.7

Q: Name the recorded apparent KD of MS2 coat protein for AGGAUGUUAGGAUAUGCUAGAGUACUACAGAGUACUACGGAGCAGAAGGAACAUGAGGAUCACCCAUGUCACCU [Exclusion 4 R4 S1] (Eterna round: R97, puzzle: Exclusion 4) .
Result: 19.9

Q: Name the recorded apparent KD of MS2 coat protein for UGCCAAGCAGGAUAUGCCCGGAAUAACAUGAGGAUCACCCAUGUGACCGAUUGAUGUUCUGCAGAAGGGCAUGGAA [Mat - Exclusion 5 - Eli Mod - D2] (Eterna round: R97, puzzle: Exclusion 5) .
Result: 17.2

Q: Name the recorded apparent KD of MS2 coat protein for AUAUAGUGAGGAUAUCCAAUAUAUGACAUGAGGAUCACCCAUGUUUCCACUCGUACCUCCGGAGAAGGCACAUUUU [Ex5 #65] (Eterna round: R97, puzzle: Exclusion 5) .
Result: 27.2

* * *

tested on: MS2 coat protein; assay: apparent KD of MS2 coat protein; designed switch direction (-1 OFF switch, 1 ON switch): 1; higher = weaker reporter binding; conditions: input ligand: none
Quick list: apparent KD of MS2 coat protein per entry.
Please state the number and follow it with the unit.

ordered residues	measured parameter	measured value
UAAAGAUCGCGAGGAUAUCGCGAGGAUCACCCGUGAGAAGGCGCAGAGCCGAGGAUCACCCGGCUGAUCCUGAGGAGGAGGUCA (Eterna round: R96, puzzle: Same State NG 1)	apparent KD of MS2 coat protein	302 nM
GUACAGAUCAGAGGAUAUCACGUCGUUUAGACGUGAGAAGGCUGAUCACACAUGAAUAUUAGUACAUGAGGAUCACCCAUGUAC [SSNG1/15-A3] (Eterna round: R96, puzzle: Same State NG 1)	apparent KD of MS2 coat protein	17.5 nM

Note: attention shifts to another entry.
Q: Name the recorded apparent KD of MS2 coat protein for GGUCGGUCCUACAUGAGGAUCACCCAUGUUCCGGAAACGGCAUAGGAUAUCUGUCCGAAAAGGUCAGAGAAGGGUGAACCGACC [Fiskers NG3ss - 73] (Eterna round: R96, puzzle: Same State NG 3) .
Result: 189 nM

* * *

system: K4 kissing-loop RNA reporter; assay: apparent KD of K4 kissing-loop reporter; higher = weaker reporter binding; conditions: Eterna round: R107; input ligand: theophylline 20 uM;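 further: bound reporter read as fluorescence of individual clusters on recovered sequencing chips by microscopy, with normalized cluster intensities fitted with a binding model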
Group membership follows apparent KD of K4 kissing-loop reporter per the scheme zone 1 = under 200 nM, zone 2 = from 200 nM up to 300 nM, zone 3 = 300 nM and over

ordered residues	class name
AUCGAUAUCAGAGGAUAUGCUUAAUUGAUUUAUUAUUAUUUAUUAUGCAGUGAUGUUGCAUUUUUUGCAGAAGGCUGAUUUCGAA [JR_SSFMNB_Sub022]	zone 1

Q: State the band of UAUUCUUAUCUUAGUUGAUUUCUAAUUAAACGAGGACCGGUACGGCCGCCACUCGGUUAUGAGUGAUGUUCAUGGAAUUACAUAA [JR_SSTryptoA_Sub020]
Result: zone 3

Q: State the band of UCUGGUAUAUCUGAUACCAGAGUAUAGUAUCAAUUGCAUAUGGAGUGAUGUUCCAUACAACUCCCUUGGCAGCAGAUCUAUCUCU [Same State Theophylline B GF 24]
Result: zone 2

Q: State the band of CUGGGUUGACGAAAAGUCAACAAAUGAGAAGGAGCGCACGAAAGUGCAGGUAGGUCGCUCAGUCCAGUGAUGUUGGAUCAUCCAG [#SwitchBubble 10 #K4Late]
Result: zone 3

Q: State the band of CCCUCACGAGUGAUGUUCGUAGGGUACAGUCAGGAUAUCAUGCGGUUGAGAAGGGACAGAGAGGGCGGCGGCGGGUUGCUCAUCU [Isanausbe]
Result: zone 2

* * *

tested on: MS2 coat protein; assay: apparent KD of MS2 coat protein; designed switch direction (-1 OFF switch, 1 ON switch): -1; higher = weaker reporter binding; conditions: input ligand: FMN 200 uM
measured parameter: apparent KD of MS2 coat protein (nM)
Please respond with the number in nM and leave the unit unwritten.

ordered residues	scale unit	apparent KD of MS2 coat protein
AGGUGUAGAGGAUAUCGAAUCCUUUACAUGAGGAUCACCCAUGUCCUGGGCACCCAGGACCGAGAAGGCUACACCA [Omei Ex5 D33] (Eterna round: R97, puzzle: Exclusion 5)	nM	40.2
UUAAAUCAUGUAGGAUAUGCGUGGAGAAGCUAUGCAGAAGGACAUGAGGAUCACCCAUGUGCUUCCGUCUGCGUACAGAUGGUA [Mat - Exclusion NG 1 - Mod of JL - D7] (Eterna round: R96, puzzle: Exclusion NG 1)	nM	84.5
UUGUUUUCCGCAGGAUAUGCUCCUCUAUUACUAGCAGAAGGGCGUUGAACAUGAGGAUCACCCAUGUAUGUAAUUGCUUAUUGC [JR_ExcNG1_Sub074] (Eterna round: R96, puzzle: Exclusion NG 1)	nM	19.3
GUUUCACAUGAGGAUCACCCAUGUGAGGAUAUGGACUUUUUGGCAAUAGUCGUUGGGUUCAGAAGGCGCGUGAU [JR_Exc1_Sub006] (Eterna round: R97, puzzle: Exclusion 1)	nM	45.2
UGCUACGGAGGAUAUACAUGAGGAUCACCCAUGUGUGAGAUUAGGCCGAGAGGCCAAUGUAGAAGGCCGUAGCU [jl-ex3-4.21 jl mod] (Eterna round: R97, puzzle: Exclusion 3)	nM	339
CCUCGAAGGCAAGGAUAUCCUACAUUGUUCUGGCCCGGGCAUGCUACAUGAGGAUCACCCAUGUGGGAGAAGGUGCGCCACGGC [Design 30] (Eterna round: R96, puzzle: Exclusion NG 2)	nM	56.7
ACAAGCUUUUUGUUUGUCUACAUGAGGAUCACCCAUGUGGGUGUCAGUCAUGCUGGCGUGUGGUGUCGUGGCAGCGC [Sensor V1 S1] (Eterna round: R97, puzzle: Sensor, turn-off variant 1)	nM	978
UCGCUCCGUGUAGGAUAUCGUUGUACCCUGCGGCGAGAAGGACAUGAGGAUCACCCAUGUAUGUUAUUAUCACGCGUGGCGCAC [Design 70] (Eterna round: R96, puzzle: Exclusion NG 1)	nM	15.4

Q: Name the recorded apparent KD of MS2 coat protein for GAGUCCUUGGUGAGGAUAUGGCGAGGAGCACUUGUCCAGAAGGCACAUGAGGAUCACCCAUGUUCUAGUAAUUG [Eternabot (L2) Solution 75] (Eterna round: R97, puzzle: Brourd's mod of Exclusion 4) .
Result: 77.2
